Parameter: kd var/kd wt. Scope: all listed entries.
study.system: T1, human TGFβ1 (human, UniProt P01137 279-390)
T1 construct: also called TGFβ1 homodimer
T1 sequence (P01137 279-390 limits assumed): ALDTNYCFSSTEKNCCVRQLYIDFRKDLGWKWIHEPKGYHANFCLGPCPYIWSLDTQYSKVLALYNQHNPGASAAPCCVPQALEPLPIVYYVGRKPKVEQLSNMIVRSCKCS
protocol.summary: Biacore off-rate vs wt GC1008, 50 nM
Answer field: number only, no words.

Consider the following illustrative entries.
# binder, reported.endpoint, observed.measurement
measured = [
    ("N32T (antibody, V domains shown, GC1008 IgG4 variant) VH: QVQLVQSGAEVKKPGSSVKVSCKASGYTFSSTVISWVRQAPGQGLEWMGGVIPIVDIANYAQRFKGRVTITADESTSTTYMELSSLRSEDTAVYYCASTLGLVLDAMDYWGQGTLVTVSS VL: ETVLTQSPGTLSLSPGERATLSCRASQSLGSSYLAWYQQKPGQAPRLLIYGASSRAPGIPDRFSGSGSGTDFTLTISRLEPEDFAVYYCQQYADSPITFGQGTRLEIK", "kd var/kd wt", 1.5),
    ("N32Y (antibody, V domains shown, GC1008 IgG4 variant) VH: QVQLVQSGAEVKKPGSSVKVSCKASGYTFSSYVISWVRQAPGQGLEWMGGVIPIVDIANYAQRFKGRVTITADESTSTTYMELSSLRSEDTAVYYCASTLGLVLDAMDYWGQGTLVTVSS VL: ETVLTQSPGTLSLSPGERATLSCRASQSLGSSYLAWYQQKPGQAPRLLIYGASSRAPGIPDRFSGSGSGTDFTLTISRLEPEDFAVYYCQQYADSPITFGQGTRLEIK", "kd var/kd wt", 2.1),
]

Continue with the next binder.
Returns the measured kd var/kd wt for the input binder. Input: I54V (antibody, V domains shown, GC1008 IgG4 variant) VH: QVQLVQSGAEVKKPGSSVKVSCKASGYTFSSNVISWVRQAPGQGLEWMGGVIPVVDIANYAQRFKGRVTITADESTSTTYMELSSLRSEDTAVYYCASTLGLVLDAMDYWGQGTLVTVSS VL: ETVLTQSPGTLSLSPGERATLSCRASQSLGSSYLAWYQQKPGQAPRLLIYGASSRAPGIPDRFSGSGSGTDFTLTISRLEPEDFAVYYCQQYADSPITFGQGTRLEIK 1
